From: ChEMBL document CHEMBL1138156

Tested On: Integrin alpha-V/beta-5 (Homo sapiens, UniProt P06756+P18084)
Sequence (P06756 31-889 limits assumed): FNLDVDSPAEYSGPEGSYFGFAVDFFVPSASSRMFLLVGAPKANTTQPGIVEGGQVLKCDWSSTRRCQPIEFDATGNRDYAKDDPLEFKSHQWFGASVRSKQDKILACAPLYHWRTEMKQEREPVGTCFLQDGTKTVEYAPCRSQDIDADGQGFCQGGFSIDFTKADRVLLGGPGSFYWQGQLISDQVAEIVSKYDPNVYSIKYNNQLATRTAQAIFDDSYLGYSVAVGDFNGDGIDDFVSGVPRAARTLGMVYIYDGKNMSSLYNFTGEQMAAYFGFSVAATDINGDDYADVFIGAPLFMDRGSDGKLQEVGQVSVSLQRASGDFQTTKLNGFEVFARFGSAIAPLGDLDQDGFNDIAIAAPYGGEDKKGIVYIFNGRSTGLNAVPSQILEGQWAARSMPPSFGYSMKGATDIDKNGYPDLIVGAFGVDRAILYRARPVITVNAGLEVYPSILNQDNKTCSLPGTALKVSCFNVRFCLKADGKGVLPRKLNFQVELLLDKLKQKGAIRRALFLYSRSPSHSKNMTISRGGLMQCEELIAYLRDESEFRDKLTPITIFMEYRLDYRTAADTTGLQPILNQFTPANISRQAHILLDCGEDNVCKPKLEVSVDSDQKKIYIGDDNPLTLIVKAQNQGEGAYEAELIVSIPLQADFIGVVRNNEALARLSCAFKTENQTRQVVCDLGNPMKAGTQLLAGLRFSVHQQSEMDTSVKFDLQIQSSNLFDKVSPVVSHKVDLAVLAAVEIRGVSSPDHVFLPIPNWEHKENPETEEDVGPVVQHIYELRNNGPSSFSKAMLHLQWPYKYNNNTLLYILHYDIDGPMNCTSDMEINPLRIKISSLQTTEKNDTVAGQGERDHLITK
Sequence (P06756 891-1048 limits assumed): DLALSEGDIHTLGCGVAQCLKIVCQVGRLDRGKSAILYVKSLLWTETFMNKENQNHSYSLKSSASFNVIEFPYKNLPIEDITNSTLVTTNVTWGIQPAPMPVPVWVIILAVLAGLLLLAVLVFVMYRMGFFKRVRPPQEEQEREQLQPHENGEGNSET
Sequence (P18084 24-799 limits assumed): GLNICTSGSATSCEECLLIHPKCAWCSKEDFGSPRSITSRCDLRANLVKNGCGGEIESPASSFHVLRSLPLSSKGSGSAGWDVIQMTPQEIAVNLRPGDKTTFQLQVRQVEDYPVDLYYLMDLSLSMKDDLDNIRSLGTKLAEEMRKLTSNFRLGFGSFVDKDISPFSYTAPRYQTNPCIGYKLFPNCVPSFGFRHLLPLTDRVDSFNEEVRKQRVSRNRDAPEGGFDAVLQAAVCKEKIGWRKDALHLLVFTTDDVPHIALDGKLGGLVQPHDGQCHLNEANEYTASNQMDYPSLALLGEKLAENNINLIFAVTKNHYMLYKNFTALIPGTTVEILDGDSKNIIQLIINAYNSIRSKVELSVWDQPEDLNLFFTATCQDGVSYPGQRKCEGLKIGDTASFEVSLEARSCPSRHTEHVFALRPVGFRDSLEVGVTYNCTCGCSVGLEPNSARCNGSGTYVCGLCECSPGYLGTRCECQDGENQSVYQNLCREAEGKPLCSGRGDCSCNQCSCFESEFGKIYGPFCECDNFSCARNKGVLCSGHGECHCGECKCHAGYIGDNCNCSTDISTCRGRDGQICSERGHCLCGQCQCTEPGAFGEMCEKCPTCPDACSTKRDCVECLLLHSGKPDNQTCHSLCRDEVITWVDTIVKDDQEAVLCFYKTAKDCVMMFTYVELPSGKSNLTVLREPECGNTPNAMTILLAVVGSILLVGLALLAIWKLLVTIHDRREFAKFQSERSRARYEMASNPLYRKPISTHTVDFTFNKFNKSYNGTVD
Run Description: Displacement of [125I]echistatin from AlphaV-beta-5 integrin receptor
Attribute Measured: IC50 (nM)

Problem: Find the recorded IC50 belonging to "CN1C(=O)[C@@H](Cc2ccccc2)NC(=O)[C@H](CC(=O)O)NC(=O)CNC(=O)[C@H](CCCN=C(N)N)NC(=O)[C@@]1(Cc1ccccc1)C(F)(F)F" and report it.
Solution: 7.7

(I) N=C(N)NCCC[C@@H]1NC(=O)[C@@](Cc2ccccc2)(C(F)F)NC(=O)[C@@H](Cc2ccccc2)NC(=O)[C@H](CC(=O)O)NC(=O)CNC1=O
(II) NC(N)=NCCC[C@@H]1NC(=O)[C@](Cc2ccccc2)(C(F)(F)F)NC(=O)[C@@H](Cc2ccccc2)NC(=O)[C@H](CC(=O)O)NC(=O)CNC1=O
Problem: Identify the entry with the larger IC50. Options: I and II # respond with the chosen item's label
Solution: II
(II: 93.5 nM, I: 5.5 nM)
